A set of molecules tested on UniProtKB P09252, with measured log10(IC50):
Lab note - IC50 converted to log10 from values in nM.

Which log10(IC50) value is on record for `O=C(NCc1ccc(Cl)cc1)c1cnc2cc(CCCCO)ccc2c1O` ?
3.00

For the molecule `N#C/C=C/c1cc(F)c2ncc(C(=O)NCc3ccc(Cl)cc3)c(O)c2c1` , what log10(IC50) is on record?
3.34

Entry under review: `O=C(NCc1ccc(Cl)cc1)c1cnc2c(F)cc(F)c(F)c2c1O` . Reported log10(IC50)?
3.61

Any idea what log10(IC50) was measured for `O=C(NCc1ccc(Cl)cc1)c1cnc2c(OCCO)cc(CCCO)cc2c1O` ?
2.59

# get_value(readout='log10(IC50)', item= `CN(C)CC(=O)OCCCc1cc(F)c2ncc(C(=O)NCc3ccc(Cl)cc3)c(O)c2c1` )
3.00

May I ask what log10(IC50) has been recorded for `O=C(NCc1ccc(Cl)cc1)c1cnc2c(F)c(F)c(F)cc2c1O` ?
4.12

Query (molecule): `O=C(NCc1ccc(Cl)cc1)c1cnc2ccc(CN3CCOCC3)cc2c1O` ; field requested: log10(IC50)
2.81

Could you share which log10(IC50) value was measured for `COc1cc(C#CCO)cc2c(O)c(C(=O)NCc3ccc(Cl)cc3)cnc12` ?
2.30

What measured log10(IC50) goes with `CC(C)(O)CCc1cc(F)c2ncc(C(=O)NCc3ccc(Cl)cc3)c(O)c2c1` ?
3.98

Using the record for `O=C(NCc1ccc(Cl)cc1)c1cnc2ccccc2c1O` , report its log10(IC50).
2.85

----------
IC50 by entry:
Tested target: HCMV polymerase (Human cytomegalovirus, UniProt P08546)
Construct: made in house; host or cells: recombinant baculovirus-infected SF-9 cells
Sequence (P08546 whole entry): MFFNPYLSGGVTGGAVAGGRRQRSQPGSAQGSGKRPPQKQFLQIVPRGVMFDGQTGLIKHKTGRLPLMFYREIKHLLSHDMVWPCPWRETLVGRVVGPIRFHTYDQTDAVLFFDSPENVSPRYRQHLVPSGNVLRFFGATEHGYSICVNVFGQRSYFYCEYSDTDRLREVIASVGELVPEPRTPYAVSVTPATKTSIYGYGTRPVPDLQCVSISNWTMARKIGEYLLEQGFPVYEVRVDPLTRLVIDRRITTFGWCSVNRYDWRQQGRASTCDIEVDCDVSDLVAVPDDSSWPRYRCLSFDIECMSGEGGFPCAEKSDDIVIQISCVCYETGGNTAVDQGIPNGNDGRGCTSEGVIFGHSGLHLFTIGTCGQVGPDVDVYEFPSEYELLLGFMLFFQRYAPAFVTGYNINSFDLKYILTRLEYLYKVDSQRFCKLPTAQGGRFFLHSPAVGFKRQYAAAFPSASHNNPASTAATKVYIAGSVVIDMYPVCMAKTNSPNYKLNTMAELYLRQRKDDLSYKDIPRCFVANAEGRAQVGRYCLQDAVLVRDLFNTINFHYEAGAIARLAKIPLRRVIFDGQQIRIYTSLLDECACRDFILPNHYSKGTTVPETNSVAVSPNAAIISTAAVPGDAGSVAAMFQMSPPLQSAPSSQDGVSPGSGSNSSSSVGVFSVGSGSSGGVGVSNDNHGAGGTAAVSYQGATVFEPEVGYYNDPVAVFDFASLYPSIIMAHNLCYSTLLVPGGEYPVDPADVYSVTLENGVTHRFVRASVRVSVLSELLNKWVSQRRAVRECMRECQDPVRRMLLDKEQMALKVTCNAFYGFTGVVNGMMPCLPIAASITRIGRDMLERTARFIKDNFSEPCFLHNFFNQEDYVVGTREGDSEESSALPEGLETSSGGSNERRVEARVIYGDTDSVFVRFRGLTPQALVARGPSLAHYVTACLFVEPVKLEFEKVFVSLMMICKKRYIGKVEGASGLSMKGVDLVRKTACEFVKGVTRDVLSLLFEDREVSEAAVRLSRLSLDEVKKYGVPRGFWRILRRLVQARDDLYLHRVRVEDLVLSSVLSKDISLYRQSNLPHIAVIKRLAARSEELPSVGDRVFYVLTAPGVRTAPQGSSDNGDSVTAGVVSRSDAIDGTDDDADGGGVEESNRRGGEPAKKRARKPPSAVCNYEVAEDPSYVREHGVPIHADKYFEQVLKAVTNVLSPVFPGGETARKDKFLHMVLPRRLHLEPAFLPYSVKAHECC
Experiment notes: HCMV polymerase scintillation proximity assay (SPA), modified version
Format: biochemical
Test settings: CMV polymerase; Table 1; modified assay with 4.5 mM DTT, compounds in 100% DMSO; read-out: Antiviral Selective Polymerase IC50 Values, CMV
Method: The HCMV polymerase assay is performed using a scintillation proximity assay (SPA) as described in several references, such as N. D. Cook, et al., Pharmaceutical Manufacturing International, pages 49-53 (1992); K. Takeuchi, Laboratory Practice, September issue (1992); U.S. Pat. No. 4,568,649 (1986); which are incorporated by reference herein. Reactions are performed in 96-well plates. […] Plates are incubated 10 min. at 37° C., then equilibrated to room temperature, and counted on a Packard Topcount. […]

Quick one: IC50 for `O=C(NCc1ccc(Cl)cc1)c1cnc2c(F)cc(C#CCO)cc2c1O` ?
< 780 nM

Record request: IC50 value, item CN1CCCC1CCNS(=O)(=O)c1cc(F)c2ncc(C(=O)NCc3ccc(Cl)cc3)c(O)c2c1 (stereo not drawn)
≥ 50000 nM

If you can, please state the reported IC50 value of `O=C(NCc1ccc(Cl)cc1)c1cnc2c(F)cc(/C=C\CCO)cc2c1O` .
< 780 nM

----------
Tested target: HSV polymerase (Human herpesvirus 1, UniProt P04293)
Sequence (P04293 whole entry): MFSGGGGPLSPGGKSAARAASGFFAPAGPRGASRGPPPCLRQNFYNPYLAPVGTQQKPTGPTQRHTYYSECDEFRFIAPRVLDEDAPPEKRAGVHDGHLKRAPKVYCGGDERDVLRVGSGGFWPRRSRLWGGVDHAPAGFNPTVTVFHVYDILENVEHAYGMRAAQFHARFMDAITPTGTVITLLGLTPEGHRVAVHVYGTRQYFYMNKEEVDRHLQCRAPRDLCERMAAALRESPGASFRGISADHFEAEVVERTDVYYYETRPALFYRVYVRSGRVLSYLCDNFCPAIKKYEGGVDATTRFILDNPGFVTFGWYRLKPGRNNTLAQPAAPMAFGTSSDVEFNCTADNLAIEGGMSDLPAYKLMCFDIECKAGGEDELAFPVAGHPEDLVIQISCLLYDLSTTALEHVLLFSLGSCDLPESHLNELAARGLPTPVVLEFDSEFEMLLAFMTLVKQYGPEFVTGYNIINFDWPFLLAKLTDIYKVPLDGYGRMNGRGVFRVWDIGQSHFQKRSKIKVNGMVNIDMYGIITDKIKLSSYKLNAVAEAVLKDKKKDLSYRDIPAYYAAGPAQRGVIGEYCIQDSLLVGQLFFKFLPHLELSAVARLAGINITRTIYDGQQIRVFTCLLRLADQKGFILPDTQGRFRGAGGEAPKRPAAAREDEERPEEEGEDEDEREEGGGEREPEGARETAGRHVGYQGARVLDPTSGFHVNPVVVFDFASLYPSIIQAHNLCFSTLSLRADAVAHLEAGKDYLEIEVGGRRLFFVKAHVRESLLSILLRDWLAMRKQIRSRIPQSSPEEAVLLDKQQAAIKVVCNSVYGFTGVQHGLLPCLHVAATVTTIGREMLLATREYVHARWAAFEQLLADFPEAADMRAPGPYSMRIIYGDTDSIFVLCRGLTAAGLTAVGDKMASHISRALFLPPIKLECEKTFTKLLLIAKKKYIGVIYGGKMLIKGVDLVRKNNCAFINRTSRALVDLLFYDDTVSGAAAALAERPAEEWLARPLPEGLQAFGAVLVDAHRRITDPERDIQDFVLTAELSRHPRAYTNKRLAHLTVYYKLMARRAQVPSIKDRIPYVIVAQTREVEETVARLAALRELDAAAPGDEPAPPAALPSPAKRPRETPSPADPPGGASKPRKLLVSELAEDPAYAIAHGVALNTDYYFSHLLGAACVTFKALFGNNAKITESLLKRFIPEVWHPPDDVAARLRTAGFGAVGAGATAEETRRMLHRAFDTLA
As shown below, each of these molecules has a reported pIC50 value.
# pIC50 = -log10(concentration in molar units)

Please state recorded pIC50 (tested on HSV polymerase (Human herpesvirus 1, UniProt P04293)) of `O=C(CBr)OCCCc1cc(F)c2ncc(C(=O)NCc3ccc(Cl)cc3)c(O)c2c1`
5.46

Look up pIC50 with HSV polymerase (Human herpesvirus 1, UniProt P04293) for this molecule: `N#C/C=C/c1cc(F)c2ncc(C(=O)NCc3ccc(Cl)cc3)c(O)c2c1`
5.49

// map `O=C(NNc1ccc(Cl)cc1)c1cnc2c(F)c(F)c(F)cc2c1O` to recorded pIC50 (system: HSV polymerase (Human herpesvirus 1, UniProt P04293))
5.55

Which pIC50 is reported with HSV polymerase (Human herpesvirus 1, UniProt P04293) for this entry: `CC(=O)Nc1ccc2ncc(C(=O)NCc3ccc(Cl)cc3)c(O)c2c1` ?
4.09

Identify the measured pIC50 of `O=C(NCc1ccc(Cl)cc1)c1cnc2c(F)c(F)c(F)cc2c1O` for HSV polymerase (Human herpesvirus 1, UniProt P04293).
4.66

Hello, I am looking for reported pIC50 with HSV polymerase (Human herpesvirus 1, UniProt P04293) for `CN(C)c1ccc2ncc(C(=O)NCc3ccc(Cl)cc3)c(O)c2c1` . Could you help?
4.84

Query pIC50 on HSV polymerase (Human herpesvirus 1, UniProt P04293) for `CS(=O)(=O)Nc1ccc2ncc(C(=O)NCc3ccc(Cl)cc3)c(O)c2c1`
4.15

Reported pIC50 for HSV polymerase (Human herpesvirus 1, UniProt P04293), given `O=C(NCc1ccc(Cl)cc1)c1cnc2c(F)cc(-c3cccs3)cc2c1O` ?
6.37

Write down the reported pIC50 of `CC(=O)Nc1ccc2c(O)c(C(=O)NCc3ccc(Cl)cc3)cnc2c1` , test system: HSV polymerase (Human herpesvirus 1, UniProt P04293).
4.73

Give recorded pIC50 with HSV polymerase (Human herpesvirus 1, UniProt P04293) for the following molecule: `O=C(NCc1ccc(Cl)cc1)c1cnc2ccc(OCCO)cc2c1O`
5.85

Kindly state the measured pIC50 obtained for `O=C(NCc1ccc(Cl)cc1)c1cnc2ccc(CN3CCOCC3)cc2c1O` with HSV polymerase (Human herpesvirus 1, UniProt P04293).
6.20

Look up pIC50 with HSV polymerase (Human herpesvirus 1, UniProt P04293) for this molecule: `O=C(NCc1ccc(Cl)cc1)c1cnc2cc(CCCCO)ccc2c1O`
5.77

Form field: pIC50 recorded for `CS(=O)(=O)OCCCc1cc(F)c2ncc(C(=O)NCc3ccc(Cl)cc3)c(O)c2c1` with HSV polymerase (Human herpesvirus 1, UniProt P04293) (enter value)
5.54

pIC50 of `O=C(NCc1ccc(Cl)cc1)c1cnc2cc(C(F)(F)F)ccc2c1O` on HSV polymerase (Human herpesvirus 1, UniProt P04293)?
4.45

Identify the measured pIC50 of `CC(C)(CCO)c1ccc2ncc(C(=O)NCc3ccc(Cl)cc3)c(O)c2c1` for HSV polymerase (Human herpesvirus 1, UniProt P04293).
5.60
